System: K4 kissing-loop RNA reporter;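 also: bound reporter read as fluorescence of individual clusters on recovered sequencing chips by microscopy, with normalized cluster intensities fitted with a binding model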
Assay: apparent KD of K4 kissing-loop reporter; higher = weaker reporter binding
Conditions: Eterna round: R107; input ligand: arginine 13.2 mM

{"sequence_text": "AUUCUAUUGUGAAGGAGCGCGUAUAGUAGUGAUGUUACUAUAAUGAUAGAUACUUAAUUCUCGCAGGUAGGUCGCACAAUAUAUA [JR_Nu_ExcArginiB_Sub024]", "uom": "nM", "apparent KD of K4 kissing-loop reporter": 77.5}
{"sequence_text": "UGAUAGGACAGAAGGAGCGGCAGUGAUGUUGCCAAAAGGUUAAGGUGUCAAAAGACACCCUGCCAGGUAGGUCGCUGUCCUAUCU", "uom": "nM", "apparent KD of K4 kissing-loop reporter": 236}
{"sequence_text": "AGUGCCUGCCUUAGCCUUCCCAUCAACUUCCGAGGACCGGUACGGCCGCCACUCGGCCAUCGGGCUAGUGAUGUUACCUGGUGGA [theeternabot_sameState_KL_Trp_A_50]", "uom": "nM", "apparent KD of K4 kissing-loop reporter": 302}
{"sequence_text": "UAUACUAGACAAGAGAGAAUUCUCUCAAGAGAGGAUAUCCGAAUUCGGAGAAGGCUCUCUCAGUGAUGUUGGGAAUAGUCUAGAA [AK6 SS FMN A]", "uom": "nM", "apparent KD of K4 kissing-loop reporter": 151}
{"sequence_text": "CUUAAGGAGUGUCGUGCCGGACACUGGGAAGGAGCGCAAUUCUUUGCAGGUAGGUCGCCCAGUGAUGUUGGGUGGCGCUGUCGAA [Laatonbi]", "uom": "nM", "apparent KD of K4 kissing-loop reporter": 156}
{"sequence_text": "UGUAUGUGAUUUGAUACCAGACCAGCUGGAGGAAUCUGAGUGAUGUUCAGGUAGGUUUGGGUCCCUUGGCAGCAAAUCGCAUACU [KL-SSTheoB17]", "uom": "nM", "apparent KD of K4 kissing-loop reporter": 196}
